Test system: ChaGo-K-1
method.summary: relative viability (nuclei count vs DMSO), 5 days (fraction); higher = more cells survive
condition.context: first compound 0.3162 µM
# note: exactly 0.7 is not below, so it is false; use true for relative viability strictly under it

Example results:
compound: NC(=O)Nc1cc(-c2cccc(F)c2)sc1C(=O)N[C@H]1CCCNC1 [AZD7762] + COc1cccc2cc(-c3nc([C@H]4CC[C@H](C(=O)O)CC4)n4ncnc(N)c34)[nH]c12 [OSI-027] (partner 0.5 µM)
group: true
--
compound: NC(=O)Nc1cc(-c2cccc(F)c2)sc1C(=O)N[C@H]1CCCNC1 [AZD7762] + CS(=O)(=O)N1CCN(Cc2cc3nc(-c4cccc5[nH]ncc45)nc(N4CCOCC4)c3s2)CC1 [Pictilisib] (partner 1 µM)
group: true
--
compound: NC(=O)Nc1cc(-c2cccc(F)c2)sc1C(=O)N[C@H]1CCCNC1 [AZD7762] + Nc1nc2[nH]cc(CCc3ccc(C(=O)N[C@@H](CCC(=O)O)C(=O)O)cc3)c2c(=O)[nH]1 [Pemetrexed] (partner 0.2 µM)
group: true
--
compound: NC(=O)Nc1cc(-c2cccc(F)c2)sc1C(=O)N[C@H]1CCCNC1 [AZD7762] + COc1cc2c(Oc3ccc(NC(=O)C4(C(=O)Nc5ccc(F)cc5)CC4)cc3F)ccnc2cc1OCCCN1CCOCC1 [Foretinib] (partner 0.25 µM)
group: false

Next compound, please.
Lookup: Dear colleague, could you confirm whether relative viability of NC(=O)Nc1cc(-c2cccc(F)c2)sc1C(=O)N[C@H]1CCCNC1 [AZD7762] + Nc1ncn([C@H]2C[C@H](O)[C@@H](CO)O2)c(=O)n1 [Decitabine] (partner 2 µM) falls below 0.7? Thanks.
Found: true

----------
Tested on: NCI-H23
method.summary: relative viability (nuclei count vs DMSO), 5 days (fraction); higher = more cells survive
condition.context: first compound 1.265 µM
relative viability listing for selected molecules.
Could you respond with only the numeric value?

molecule: O=C(O)c1ccc(-c2c[nH]c3ncc(-c4ccccc4)cc23)cc1C1CCCC1 + CS(=O)(=O)N1CCN(Cc2cc3nc(-c4cccc5[nH]ncc45)nc(N4CCOCC4)c3s2)CC1 [Pictilisib] (partner 1 µM)
assay.value: 0.428

molecule: O=C(O)c1ccc(-c2c[nH]c3ncc(-c4ccccc4)cc23)cc1C1CCCC1 + CS(=O)(=O)CCNCc1ccc(-c2ccc3ncnc(Nc4ccc(OCc5cccc(F)c5)c(Cl)c4)c3c2)o1 [Lapatinib] (partner 2 µM)
assay.value: 0.752

molecule: O=C(O)c1ccc(-c2c[nH]c3ncc(-c4ccccc4)cc23)cc1C1CCCC1 + NC(=O)Nc1cc(-c2cccc(F)c2)sc1C(=O)N[C@H]1CCCNC1 [AZD7762] (partner 0.2 µM)
assay.value: 0.328

molecule: O=C(O)c1ccc(-c2c[nH]c3ncc(-c4ccccc4)cc23)cc1C1CCCC1 + CCNC(=O)c1noc(-c2cc(C(C)C)c(O)cc2O)c1-c1ccc(CN2CCOCC2)cc1 [Luminespib] (partner 0.01 µM)
assay.value: 0.2

molecule: O=C(O)c1ccc(-c2c[nH]c3ncc(-c4ccccc4)cc23)cc1C1CCCC1 + Nc1ncn([C@H]2C[C@H](O)[C@@H](CO)O2)c(=O)n1 [Decitabine] (partner 2 µM)
assay.value: 0.251

Lookup: Given O=C(O)c1ccc(-c2c[nH]c3ncc(-c4ccccc4)cc23)cc1C1CCCC1 + COc1cccc2cc(-c3nc([C@H]4CC[C@H](C(=O)O)CC4)n4ncnc(N)c34)[nH]c12 [OSI-027] (partner 0.5 µM) , state its recorded relative viability.
Found: 0.531

Lookup: Then O=C(O)c1ccc(-c2c[nH]c3ncc(-c4ccccc4)cc23)cc1C1CCCC1 + O=C(c1cc(Cc2n[nH]c(=O)c3ccccc23)ccc1F)N1CCN(C(=O)C2CC2)CC1 [Olaparib] (partner 8 µM) ?
Found: 0.271

From: the supplement of paper PMC10307832
